- Assayed system: FAAH (Mus musculus, UniProt O08914)
- Sequence (O08914 1-579): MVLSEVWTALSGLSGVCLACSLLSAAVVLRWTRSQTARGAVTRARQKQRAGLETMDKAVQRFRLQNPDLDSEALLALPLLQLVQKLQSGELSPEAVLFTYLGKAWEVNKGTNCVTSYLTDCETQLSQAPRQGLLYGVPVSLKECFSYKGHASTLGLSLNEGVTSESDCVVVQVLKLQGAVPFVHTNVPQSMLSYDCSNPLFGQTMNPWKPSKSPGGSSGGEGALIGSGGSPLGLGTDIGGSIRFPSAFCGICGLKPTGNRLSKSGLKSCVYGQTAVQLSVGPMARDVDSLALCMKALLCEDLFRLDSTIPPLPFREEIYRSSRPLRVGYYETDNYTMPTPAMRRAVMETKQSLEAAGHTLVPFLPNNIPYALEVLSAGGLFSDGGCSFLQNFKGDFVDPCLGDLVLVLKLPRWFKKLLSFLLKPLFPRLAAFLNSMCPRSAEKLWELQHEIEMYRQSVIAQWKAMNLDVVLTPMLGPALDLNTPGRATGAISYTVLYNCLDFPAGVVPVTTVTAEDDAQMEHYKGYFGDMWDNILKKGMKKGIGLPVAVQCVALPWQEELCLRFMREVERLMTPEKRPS
- Measurement description: In vitro competitive activity-based protein profiling (Table 2, % inhibition at 1 μM)
- Assay type: biochemical
- Experimental conditions: read-out: % Inhibition at 1 μM FAAH
Measured metric: inhibition at 1 µM

Compound	Recorded measurement
O=C(OC(C(F)(F)F)C(F)(F)F)N1CC2CN(Cc3ccc(N4CCOCC4)cc3C(F)F)CC2C1 (stereo not shown)	25 to 75%
O=C(ON1C(=O)CCC1=O)N1CC2CN(Cc3ccc(F)cc3N3CCOCC3)CC2C1 (stereo not shown)	< 25%
O=C(OC(C(F)(F)F)C(F)(F)F)N1CC2CN(Cc3ccc(C(=O)N4CCCCC4)c(OC(F)(F)F)c3)CC2C1 (stereo not shown)	< 25%
Cc1c(CN2CC3CN(C(=O)ON4C(=O)CCC4=O)CC3C2)cccc1N1CCC(NS(C)(=O)=O)CC1 (stereo not shown)	< 25%

====

- Test system: Trypanosoma brucei
- Measurement description: Alamar Blue assay against Trypanosoma brucei
- Format: cell-based
- Experimental conditions: read-out: IC50 T. brucei
pIC50: −log10 of the molar value.

Compound	pIC50
O=C(ON1C(=O)CCC1=O)N1CC2CN(Cc3ccc(Cl)cc3N3CCC4(CCOCC4)C3)CC2C1 (stereo not shown) [Example 106]	> 5.30

====

Reported inhibition at 1 µM values are given for each entry in this list.
- Assayed system: ABHD6 (Mus musculus, UniProt Q8R2Y0)
- Sequence (Q8R2Y0 1-336): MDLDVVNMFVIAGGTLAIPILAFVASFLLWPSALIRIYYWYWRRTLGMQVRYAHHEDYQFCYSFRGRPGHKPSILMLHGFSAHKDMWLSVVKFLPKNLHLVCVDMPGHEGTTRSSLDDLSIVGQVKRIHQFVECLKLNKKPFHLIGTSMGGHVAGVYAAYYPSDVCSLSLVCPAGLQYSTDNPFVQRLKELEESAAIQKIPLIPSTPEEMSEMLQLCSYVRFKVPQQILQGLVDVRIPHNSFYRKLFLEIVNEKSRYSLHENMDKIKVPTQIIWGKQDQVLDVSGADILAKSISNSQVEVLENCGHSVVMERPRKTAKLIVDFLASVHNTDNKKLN
- Measurement description: In vitro competitive activity-based protein profiling (Table 2, % inhibition at 1 μM)
- Assay type: biochemical
- Experimental conditions: read-out: % Inhibition at 1 μM ABHD6
Measured metric: inhibition at 1 µM

Compound	Recorded measurement
CC(=O)N1CCC(c2nn(C)cc2CN2CC3CN(C(=O)ON4C(=O)CCC4=O)CC3C2)CC1 (stereo not shown)	< 25%
CC(=O)N1CCN(c2cc(F)ccc2CN2CC3CN(C(=O)OC(C(F)(F)F)C(F)(F)F)CC3C2)CC1 (stereo not shown)	< 25%
O=C(OC(C(F)(F)F)C(F)(F)F)N1CC2CN(Cc3cccc(Cl)c3N3CC[C@H](CF)C3)CC2C1 (stereo partly shown)	25 to 75%
O=C(OC(C(F)(F)F)C(F)(F)F)N1CC2CN(Cc3ccc(C(F)F)cc3N3CCOCC3)CC2C1 (stereo not shown)	25 to 75%
O=C(OC(C(F)(F)F)C(F)(F)F)N1CC2CN(Cc3ccccc3-c3ccccc3)CC2C1 (stereo not shown)	< 25%
CC(C)n1cc(CN2CC3CN(C(=O)OC(C(F)(F)F)C(F)(F)F)CC3C2)c(-c2cccc(Cl)c2)n1 (stereo not shown)	25 to 75%
O=C(OC(C(F)(F)F)C(F)(F)F)N1CC2CN(Cc3ccc(-c4ccccc4)cc3)CC2C1 (stereo not shown)	25 to 75%

====

- Assayed system: UniProtKB O35678
- Sequence (O35678 whole entry): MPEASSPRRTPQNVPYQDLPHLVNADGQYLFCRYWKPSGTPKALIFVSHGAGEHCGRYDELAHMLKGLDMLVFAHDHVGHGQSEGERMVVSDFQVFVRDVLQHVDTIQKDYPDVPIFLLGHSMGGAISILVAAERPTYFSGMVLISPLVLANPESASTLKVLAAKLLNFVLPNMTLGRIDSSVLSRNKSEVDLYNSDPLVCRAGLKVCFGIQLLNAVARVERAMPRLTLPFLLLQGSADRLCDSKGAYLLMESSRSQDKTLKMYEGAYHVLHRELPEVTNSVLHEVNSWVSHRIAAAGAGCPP
- Measurement description: In vitro competitive activity-based protein profiling (Table 2, % inhibition at 1 μM)
- Type: biochemical
- Experimental conditions: read-out: % Inhibition at 1 μM MAGL

Molecule	inhibition at 1 µM
CS(=O)(=O)N1CCN(c2cc(Cl)ccc2CN2CC3CN(C(=O)OC(C(F)(F)F)C(F)(F)F)CC3C2)CC1 (stereo not drawn)	> 75%
CC1COCCN1c1cc(F)ccc1CN1CC2CN(C(=O)ON3C(=O)CCC3=O)CC2C1 (stereo not drawn)	< 25%
O=C(ON1C(=O)CCC1=O)N1CC2CN(C(c3ccc(Cl)cc3)c3ccc(Cl)cc3)CC2C1 (stereo not drawn)	25 to 75%
CC(=O)N1CCN(c2cc(F)ccc2CN2CC3CN(C(=O)OC(C(F)(F)F)C(F)(F)F)CC3C2)CC1 (stereo not drawn)	> 75%
Cc1c(CN2CC3CN(C(=O)ON4C(=O)CCC4=O)CC3C2)cccc1N1CCC(F)(F)CC1 (stereo not drawn)	> 75%
O=C(OC(C(F)(F)F)C(F)(F)F)N1CC2CN(Cc3ccc(-c4ccccc4)cc3)CC2C1 (stereo not drawn)	> 75%
CC(=O)N1CCN(c2cc(Cl)ccc2CN2CC3CN(C(=O)ON4C(=O)CCC4=O)CC3C2)CC1 (stereo not drawn)	< 25%
Cc1cccc(CN2CC3CN(C(=O)ON4C(=O)CCC4=O)CC3C2)c1N1CCN(C)CC1 (stereo not drawn)	< 25%
CCn1cc(CN2CC3CN(C(=O)OC(C(F)(F)F)C(F)(F)F)CC3C2)c(C(=O)NCc2ccccc2)n1 (stereo not drawn)	> 75%
CNC(=O)C(OC(=O)N1CC2CN(C(c3ccc(Cl)cc3)c3ccc(Cl)cc3)CC2C1)C(F)(F)F (stereo not drawn)	25 to 75%
O=C(ON1C(=O)CCC1=O)N1CC2CN(Cc3ccc(C(=O)N4CCCCC4)cc3Cl)CC2C1 (stereo not drawn)	25 to 75%
CC(C)n1cc(CN2CC3CN(C(=O)ON4C(=O)CCC4=O)CC3C2)c(C2CCN(S(C)(=O)=O)CC2)n1 (stereo not drawn)	< 25%
O=C(ON1C(=O)CCC1=O)N1CC2CN(Cc3ccc(N4CCOCC4)cc3C(F)(F)F)CC2C1 (stereo not drawn)	> 75%
O=C(OC(C(F)(F)F)C(F)(F)F)N1CC2CN(Cc3c(N4CC5COCC5C4)cccc3C(F)(F)F)CC2C1 (stereo not drawn)	> 75%
O=C(OC(C(F)(F)F)C(F)(F)F)N1CC2CN(Cc3ccc(F)cc3N3CCOCC3)CC2C1 (stereo not drawn)	> 75%
CC1COCCN1c1ccc(CN2CC3CN(C(=O)OC(C(F)(F)F)C(F)(F)F)CC3C2)c(Cl)c1 (stereo not drawn)	> 75%
CC1COCCN1c1ccc(CN2CC3CN(C(=O)OC(C(F)(F)F)C(F)(F)F)CC3C2)c(F)c1 (stereo not drawn)	> 75%
O=C(ON1C(=O)CCC1=O)N1CC2CN(Cc3ccccc3-c3ccccc3)CC2C1 (stereo not drawn)	> 75%
O=C(OC(C(F)(F)F)C(F)(F)F)N1CC2CN(Cc3cccc(C(F)(F)F)c3N3CCOCC3)CC2C1 (stereo not drawn)	> 75%
O=C(OC(C(F)(F)F)C(F)(F)F)N1CC2CN(Cc3cccc(Cl)c3N3C4CCC3COC4)CC2C1 (stereo not drawn)	> 75%
O=C(OC(C(F)(F)F)C(F)(F)F)N1CC2CN(Cc3ccc(C(=O)N4CCCCC4)c(OC(F)(F)F)c3)CC2C1 (stereo not drawn)	> 75%
CC(C)n1cc(CN2CC3CN(C(=O)OC(C(F)(F)F)C(F)(F)F)CC3C2)c(-c2ccccc2Cl)n1 (stereo not drawn)	> 75%
CC1COCCN1c1cc(F)ccc1CN1CC2CN(C(=O)OC(C(F)(F)F)C(F)(F)F)CC2C1 (stereo not drawn)	> 75%
C#CCNC(=O)c1nn(CC)cc1CN1CC2CN(C(=O)OC(C(F)(F)F)C(F)(F)F)CC2C1 (stereo not drawn)	> 75%
CCn1cc(CN2CC3CN(C(=O)OC(C(F)(F)F)C(F)(F)F)CC3C2)c(-c2ccc(N3CCCCC3)cc2)n1 (stereo not drawn)	> 75%
O=C(ON1C(=O)CCC1=O)N1CC2CN(Cc3ccc(Cl)cc3N3CCC4(CCNC4=O)CC3)CC2C1 (stereo not drawn)	25 to 75%
Cc1c(CN2CC3CN(C(=O)OC(C(F)(F)F)C(F)(F)F)CC3C2)cccc1C(=O)N1CCCC1 (stereo not drawn)	> 75%
O=C(OC(C(F)(F)F)C(F)(F)F)N1CC2CN(Cc3ccc(Cl)cc3N3CCCC3)CC2C1 (stereo not drawn)	> 75%
Cc1ccc(CN2CC3CN(C(=O)OC(C(F)(F)F)C(F)(F)F)CC3C2)c(-c2ccccc2)c1 (stereo not drawn)	> 75%
CC(C)c1cc(CN2CC3CN(C(=O)ON4C(=O)CCC4=O)CC3C2)n(C2CCOCC2)n1 (stereo not drawn)	25 to 75%

Recorded values, source patent US9828379B2.
